Cited source for all entries: the nanobody polyreactivity screen of Harvey et al. (2022)

# assayProcedure: yeast display, Sf9 membrane polyspecificity reagent, FACS + sequencing; frameworks hold sequencing errors
endpointName: polyreactivity (PSR sort gate)

Completed entries (count: 8):
1) QVQLVESGGGLVQAGGSLRLSCAASGNIFSRNAMGWYRQAPGKERELVASIRWSGGSTYADSVKGRFTISRDNAKNTVYLQMNSLKPEDTAVYYCAADSLHGRKFRGVDYWGQGTEVTVSS	low polyreactivity
2) QVQLVESGGGLVQAGGSLRLSCAASGRTFQYYAMGWYRQAPGKERVLVAAITSSGGSTYYADSVKGRFTISRHNAKNTVYLQMNSLKPEDTAVYYCAAEDGLQGNYNYGYDYWGQGTQVTVSS	low polyreactivity
3) QVLLVESGGGLGQAGGSLRLSCAASGAIFVGYAMGWYRQAPGKEREMVAAISKSGGSTYYADSVKGRFTISRDNAKNTVYLQMKSLKPDDTAVYYCAAYPVRLVYSQHRYLYDYWGQGTQVTVSS	high polyreactivity
4) QVQLVESGGGLVQAGGSLRLSCAASGIIFTGYTMGWYRQAPGKERELVAAITWRGGCTYYADSVKGRFTISRDNAKNTVYLQMNSLKPEDTAVYYCAAEGWYSWDDDYWGQGTQVTVSS	low polyreactivity
5) QVQLVESGGGLVQAGGSLRLSCAASGIIFDTYAMGWYRPAPGKEREFVARISYSGGTTYYADSVKGRFTSSRDNAKNTVYLQMNSLKPEDTAVYYCATVSRRFYRWSSRYDYWGQGTQVTVSS	high polyreactivity
6) QVQLVESGGGLVQAGGSLRLSCAASGRIFGRYTMGWYRQAPGKERELVAAISARGGSTYYADSVKGRFTISRDNAKNTVYLQMNSLKPEDTAVYYCNTVRVHGFPIDRIYDYWGQGTQVTVSS	high polyreactivity
7) QVQLVESGGGLVQAGGSLRLICAASGSTFNIYAMGWYRQAPGKERELVAAITSSGGSTYYAESVKGRFTISRDNGKNTVYLQMNSLKPEYTAVYYCNTDQYSPYEYSSFDSWGQGSQVTVSS	low polyreactivity
8) QFQLVESGGGLVQAGGSLRLSCAASGSTFGGNAMGWYRQAPGKERELVAAIDSGGGTNYADSVKGRFTISRDNAKNTVYLQMNSLKPEDSAVYYCNADWAVRSTQNSSSGHDYWGQGTQVTVSS	low polyreactivity

Lookup: Entry QVHHVESGGGLVQAGGSLRLSCAASGRIFYPYAMGWYRQAPGKERELVASITSGGGTYYADSVKGRFTISRDNAKNTVYLQMNSLKPEDTAVYYCAAKYYTSWIRYDYWGQGTQVTVSS : reported polyreactivity (PSR sort gate) = ?
Found: low polyreactivity

Lookup: // query polyreactivity (PSR sort gate) value for entry QVQLEESGGGLVQAGGSLRLSCAATGGTFRDNVMGWYRQAPGKERELVAAISRNGGSTYYADTVKGRFTISRDNAKNTVYLQMTSLKPEDTAVYYCAARHLSAGGYYWGQGTQVTVSS
Found: high polyreactivity
